Listing of entries alongside the reported % Occ. at 10 mg/kg.
molecular target: PDE10 (Rattus norvegicus); construct: from tissue; host or cells: rat brain sections, striatum (ex vivo autoradiography after in vivo dosing); experiment: PDE10 occupancy ([3H]-MP-10, striatum); assay type: in vivo; conditions: 10 mg/kg, administered s.c.
Sequence (Q9QYJ6 whole entry): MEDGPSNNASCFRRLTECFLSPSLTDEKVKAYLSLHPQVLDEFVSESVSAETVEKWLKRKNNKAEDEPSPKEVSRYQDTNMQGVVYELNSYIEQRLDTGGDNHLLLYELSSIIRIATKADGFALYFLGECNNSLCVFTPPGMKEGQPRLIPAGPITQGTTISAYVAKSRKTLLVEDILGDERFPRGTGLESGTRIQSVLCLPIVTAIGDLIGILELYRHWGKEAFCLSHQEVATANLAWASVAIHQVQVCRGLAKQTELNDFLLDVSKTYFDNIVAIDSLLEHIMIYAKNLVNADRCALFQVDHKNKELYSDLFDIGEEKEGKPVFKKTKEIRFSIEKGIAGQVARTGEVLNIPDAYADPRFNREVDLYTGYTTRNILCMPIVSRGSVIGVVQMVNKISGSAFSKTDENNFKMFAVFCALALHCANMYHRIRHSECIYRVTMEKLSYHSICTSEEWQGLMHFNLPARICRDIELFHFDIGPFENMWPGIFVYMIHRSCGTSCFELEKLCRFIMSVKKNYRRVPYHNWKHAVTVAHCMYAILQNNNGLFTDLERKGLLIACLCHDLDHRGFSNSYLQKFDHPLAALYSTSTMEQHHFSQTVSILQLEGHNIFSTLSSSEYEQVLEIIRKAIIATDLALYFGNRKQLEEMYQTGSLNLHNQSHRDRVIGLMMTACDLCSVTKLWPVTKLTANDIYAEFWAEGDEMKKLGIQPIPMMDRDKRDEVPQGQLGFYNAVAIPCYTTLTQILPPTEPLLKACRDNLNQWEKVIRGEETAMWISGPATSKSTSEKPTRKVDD
Property measured: % Occ. at 10 mg/kg (%)

INSERT INTO assay_data (molecule, property_measured, measurement_units, recorded_measurement) VALUES
  ('FC(F)(F)Cn1cc(-c2c(C3CC3)nc3c(N4CCOCC4)nccn23)cn1 [compound 46]', '% Occ. at 10 mg/kg', '%', 41),
  ('COCCn1cc(-c2c(C3CC3)nc3c(-c4ccncc4)nccn23)cn1 [compound 51]', '% Occ. at 10 mg/kg', '%', 61),
  ('Cc1nc2c(-c3ccncc3)nccn2c1-c1cnn(CC(C)C)c1 [compound 69]', '% Occ. at 10 mg/kg', '%', 67),
  ('Cc1nc2c(N3CCOCC3)nccn2c1-c1ccc(N2CCOCC2)nc1 [compound 4]', '% Occ. at 10 mg/kg', '%', 28);

====

pIC50: −log10 of the molar value.
Let's go through some pIC50 measurements on PDE5A (Homo sapiens) together.
Property measured: pIC50

INSERT INTO measurements (compound_structure_string, sign, recorded_measurement) VALUES
  ('Cc1nc2c(N3CCOCC3)nccn2c1-c1ccc(C2CCOCC2)nc1', '=', 4.47),
  ('COCCc1ncc(-c2c(C)nc3c(N4CCOCC4)nccn23)cn1', '<', 5.00);

====

Listing of entries alongside the reported ED50.
test system: PCP-induced hyperlocomotion; assay: PCP-induced hyperlocomotion in rats (PCP); type: in vivo; details: Rattus norvegicus
Property measured: ED50 (mg/kg)

INSERT INTO assay_data (compound, sign, recorded_measurement) VALUES
  ('Cc1nc2c(-c3ccncc3)nccn2c1-c1cnn(CC(C)C)c1', '=', 2),
  ('Cc1nc2c(N3CCOCC3)nccn2c1-c1cnn(CC2CCCCO2)c1 (single isomer, unassigned)', '=', 3.2),
  ('COC(C)(C)Cn1cc(-c2c(C)nc3c(N4CCOCC4)nccn23)cn1', '=', 2),
  ('Cc1nc2c(N3CCOCC3)nccn2c1-c1cnn(CC2CC2(F)F)c1 (centres unmarked)', '≤', 10),
  ('COCCc1ccc(-c2c(C)nc3c(N4CCOCC4)nccn23)cn1', '=', 1.54),
  ('Cc1nc2c(N3CCOCC3)nccn2c1-c1ccc(C2CCOCC2)nc1', '=', 2),
  ('COCCn1cc(-c2c(C3CC3)nc3c(N4CCOCC4)nccn23)cn1', '≤', 40),
  ('Cc1nc2c(N3CCOCC3)nccn2c1-c1cnn(CC(C)C)c1', '=', 5.4);

====

Listing of entries alongside the reported pIC50.
target: UniProt Q14432; test: In vitro PDE selectivity assay, PDE3A; format: biochemical; conditions: Table 4a in vitro selectivity; read-out: IC50 PDE type 3A
Sequence (Q14432 whole entry): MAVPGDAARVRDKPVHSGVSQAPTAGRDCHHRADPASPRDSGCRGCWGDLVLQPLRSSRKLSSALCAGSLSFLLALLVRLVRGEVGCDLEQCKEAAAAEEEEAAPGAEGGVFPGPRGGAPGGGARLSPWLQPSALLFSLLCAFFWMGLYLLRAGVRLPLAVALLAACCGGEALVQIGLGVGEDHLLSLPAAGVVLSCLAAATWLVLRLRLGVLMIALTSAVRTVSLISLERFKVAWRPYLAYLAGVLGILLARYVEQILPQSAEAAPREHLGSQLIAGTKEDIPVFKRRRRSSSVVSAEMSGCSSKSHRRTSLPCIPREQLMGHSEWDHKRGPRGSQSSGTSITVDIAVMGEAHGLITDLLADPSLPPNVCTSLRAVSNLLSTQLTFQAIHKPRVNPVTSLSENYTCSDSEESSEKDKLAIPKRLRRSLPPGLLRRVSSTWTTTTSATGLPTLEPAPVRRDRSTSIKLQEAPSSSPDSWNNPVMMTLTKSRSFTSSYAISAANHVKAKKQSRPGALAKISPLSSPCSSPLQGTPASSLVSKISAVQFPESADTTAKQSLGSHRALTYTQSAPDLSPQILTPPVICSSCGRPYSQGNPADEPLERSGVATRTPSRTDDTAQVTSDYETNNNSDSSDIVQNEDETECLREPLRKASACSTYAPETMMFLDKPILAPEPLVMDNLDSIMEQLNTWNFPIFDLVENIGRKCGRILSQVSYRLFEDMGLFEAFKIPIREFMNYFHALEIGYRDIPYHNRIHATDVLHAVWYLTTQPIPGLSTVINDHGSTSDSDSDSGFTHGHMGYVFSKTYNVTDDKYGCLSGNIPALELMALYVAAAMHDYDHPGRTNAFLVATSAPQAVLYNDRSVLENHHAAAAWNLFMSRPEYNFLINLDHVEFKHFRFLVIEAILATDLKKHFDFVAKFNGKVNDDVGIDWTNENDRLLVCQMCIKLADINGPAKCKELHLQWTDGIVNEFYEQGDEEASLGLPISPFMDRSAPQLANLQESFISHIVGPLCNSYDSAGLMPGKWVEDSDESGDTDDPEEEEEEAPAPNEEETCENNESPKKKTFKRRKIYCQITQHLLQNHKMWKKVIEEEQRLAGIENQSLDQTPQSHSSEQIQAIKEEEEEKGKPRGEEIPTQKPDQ
pIC50: −log10 of the molar value.
Property measured: pIC50

INSERT INTO assay_data (compound_structure_string, sign, recorded_measurement) VALUES
  ('COCCc1ncc(-c2c(C)nc3c(N4CCOCC4)nccn23)cn1', '<', 5.00),
  ('Cc1nc2c(N3CCOCC3)nccn2c1-c1ccc(C2CCOCC2)nc1', '=', 3.95);

The measured values listed here are drawn from patent US8859543B2.
